Source of measurements: patent US11773078B2

- Target Under Test: Furin (108-574-Tev-Flag-His) enzyme (Homo sapiens)
- Construct: Furin (108-574-Tev-Flag-His) enzyme was expressed and purified from CHO cells; TEV cleavage site (C); FLAG (C); His (C); made in house; host or cells: CHO cells
- Sequence (P09958 108-574): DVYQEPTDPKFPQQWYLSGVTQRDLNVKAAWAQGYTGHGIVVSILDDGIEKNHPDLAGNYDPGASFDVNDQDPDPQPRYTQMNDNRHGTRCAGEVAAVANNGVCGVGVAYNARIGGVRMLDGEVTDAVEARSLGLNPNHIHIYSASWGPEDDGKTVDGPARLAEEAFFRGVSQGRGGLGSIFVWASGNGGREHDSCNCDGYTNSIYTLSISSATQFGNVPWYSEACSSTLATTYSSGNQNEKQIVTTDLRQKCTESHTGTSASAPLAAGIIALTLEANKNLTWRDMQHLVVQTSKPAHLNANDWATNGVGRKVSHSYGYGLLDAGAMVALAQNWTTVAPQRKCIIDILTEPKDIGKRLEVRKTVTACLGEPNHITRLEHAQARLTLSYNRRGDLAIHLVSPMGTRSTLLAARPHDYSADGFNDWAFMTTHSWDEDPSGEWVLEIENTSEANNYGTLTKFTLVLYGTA
- Test Description: Furin enzyme assay
- Format: biochemical
Structures can show the parent of a compound that is named as a salt.
Result Type: furin enzyme pIC50

{"Compound": "CNC1CCN(c2ccc(Oc3cc(CN4CCC(CNC(C)=O)CC4)cc(-c4cc(Cl)cc(Cl)c4)n3)cn2)CC1", "furin enzyme pIC50": 9}
{"Compound": "CN1CCN(c2ncc(Oc3cc(CN4CCC(CCC(=O)O)CC4)cc(-c4cc(Cl)cc(Cl)c4)n3)cn2)CC1", "furin enzyme pIC50": 8.7}
{"Compound": "CNC(=O)NCC1CCN(Cc2cc(Oc3cnc(N4CCN(CCOC)CC4)nc3)nc(-c3cc(Cl)cc(Cl)c3)c2)CC1", "furin enzyme pIC50": 9}
{"Compound": "Cc1c(CN2CCC(CC(=O)O)CC2)cc(-c2cc(Cl)cc(Cl)c2)nc1Oc1ccc(N2CCN(C)CC2)nc1 [Example 386, hydrochloride]", "furin enzyme pIC50": 8.4}
{"Compound": "CC(=O)NCC1CCN(Cc2cc(Oc3ccc(N4CCN(CC[S+](C)[O-])CC4)nc3)nc(-c3cc(Cl)cc(Cl)c3)c2)CC1 (stereo not shown) [Example 15, hydrochloride]", "furin enzyme pIC50": 8.5}
{"Compound": "CC(=O)NCC1CCN(Cc2cc(Oc3ccc(N4CCN(CC(C)(C)C(=O)O)CC4)nc3)nc(-c3cc(Cl)cc(Cl)c3)c2)CC1", "furin enzyme pIC50": 8.7}
{"Compound": "Cc1c(CN2CCC(CC(=O)O)CC2)cc(-c2cc(Cl)cc(Cl)c2)nc1Oc1ccc(N2CCN(C)CC2)nn1", "furin enzyme pIC50": 8.9}
{"Compound": "CC(=O)NCC1CCN(Cc2cc(Oc3ccc(N4CCN(CCS(C)(=O)=O)CC4)nc3)nc(-c3cc(Cl)cc(Cl)c3)c2)CC1 [Example 12, hydrochloride]", "furin enzyme pIC50": 8.3}
{"Compound": "CNC(=O)CCN1CCN(c2ncc(Oc3cc(CN4CCC(CNC(C)=O)CC4)cc(-c4cc(Cl)cc(Cl)c4)n3)cn2)CC1 [Example 94, hydrochloride]", "furin enzyme pIC50": 8.9}
{"Compound": "CC(=O)N[C@@H]1[C@@H]2CN(Cc3cc(Oc4cnc(N5CCCN(C)CC5)nc4)nc(-c4cc(Cl)cc(Cl)c4)c3)C[C@@H]21", "furin enzyme pIC50": 7.8}
{"Compound": "CC(CCN1CCN(c2ncc(Oc3cc(CN4CCC(CCO)CC4)cc(-c4cc(Cl)cc(Cl)c4)n3)cn2)CC1)C(=O)O (stereo not shown)", "furin enzyme pIC50": 10.3}
{"Compound": "CC(=O)N[C@H]1[C@@H]2CCN(Cc3cc(Oc4cnc(N5CCN(CCC(=O)O)CC5)nc4)nc(-c4cc(Cl)cc(Cl)c4)c3)CC[C@@H]21", "furin enzyme pIC50": 10.1}
{"Compound": "CC(CC1CCN(Cc2cc(Oc3cnc(N4CCCN(C)CC4)cn3)nc(-c3cc(Cl)cc(Cl)c3)c2)CC1)C(=O)O (stereo not shown)", "furin enzyme pIC50": 9.4}
